- Tested on: MOLT-4 leukemia
- PROCEDURE SUMMARY: NCI tumour cell line growth inhibition, 48 h
// TGI lookup, one value per entry

Example entries begin here.
# COMPOUND, TGI
rows = [
    ("Nc1nc(SCc2ccccc2Cl)c2[nH]cnc2n1", "> 100 µM"),
    ("CSc1ccc2c(cc1=O)[C@@H](NC(=O)c1cc(O)c(O)c(O)c1)CCc1cc(O)c(O)c(O)c1-2", "45.6 µM"),
    ("O=Cc1ccc(-c2ccc(-c3ccc(CO)s3)o2)s1", "> 39 µM"),
    ("O=c1[nH]c2nc3ccccc3c(=O)n2/c1=C/c1cccs1", "> 100 µM"),
    ("COC(=O)C(=O)CC(=O)c1cccc(OC)c1", "> 100 µM"),
]

The compound listed as COc1ccc(N2C(=O)C(=O)N(c3ccc(N=Nc4ccccc4)cc3)C2=S)cc1 shows TGI equal to > 100 µM

The compound listed as CC(=O)O[C@@]12CO[C@@H]1CC(O)[C@@]1(C)C(=O)[C@H](O)C3=C(C)C(O)C[C@@](O)(C(OC(=O)c4ccccc4)C12)C3(C)C (some centres undefined) shows TGI equal to > 31.6 µM

The compound listed as O=C1C2[C@@H](C(=O)N1c1ccc(Br)cc1)C13C(=CC2([N+](=O)[O-])[C@@H]2C(=O)N(c4ccc(Br)cc4)C(=O)[C@@H]21)c1ccccc1N3c1ccccc1 (some centres undefined) shows TGI equal to > 100 µM

The compound listed as CCCCCCCCCCCC(=O)OC[C@@H](C[As](=O)(O)O)OC(=O)CCCCCCCCCCC shows TGI equal to > 77.2 µM

###

// TGI lookup, one value per entry
- System: TK-10 renal
- PROCEDURE SUMMARY: NCI tumour cell line growth inhibition, 48 h

Example entries begin here.
# COMPOUND, TGI
measured = [
    ("O=c1[nH]c2nc3ccccc3c(=O)n2/c1=C/c1cccs1", "> 100 µM"),
    ("C/C(=N\\NC(=S)N1CCCC1)c1nc2ncccc2[nH]1", "45 µM"),
    ("Cc1cc(NCCCCNc2ccnc3cc(Cl)ccc23)nc(Nc2ccc(C(=O)N3CCCCC3)cc2)n1", "4.13 µM"),
    ("COc1cc(OC)c2sc(-c3ccc(-n4cncc4-c4cc(OC)c(OC)c(OC)c4)cc3)nc2c1", "> 100 µM"),
]

The compound listed as CC(=O)NC1CONC1=O (configuration not stated) shows TGI equal to > 100 µM

The compound listed as CC1(C)OP(=O)(O)C=C1Sc1ccc([N+](=O)[O-])cc1[N+](=O)[O-] shows TGI equal to > 100 µM

###

- Tested on: A549 NSCLC
- PROCEDURE SUMMARY: NCI tumour cell line growth inhibition, 48 h
// TGI lookup, one value per entry

Example entries begin here.
# COMPOUND, TARGET OF ASSAY, TGI
measured = [
    ("C[n+]1c2ccccc2c(NC(CCCN=C(N)N)C(=O)O)c2ccccc21 (configuration not stated)", "A549 NSCLC", "> 100 µM"),
    ("CN1CCc2c(sc3[nH]c(=S)[nH]c(=S)c23)C1", "A549 NSCLC", "> 100 µM"),
    ("CC(NC(=O)c1c(O)[nH]c(=S)[nH]c1=O)c1ccc([N+](=O)[O-])cc1 (configuration not stated)", "A549 NSCLC", "> 100 µM"),
    ("S=C1NCCN1C(=S)Nc1ccccc1", "A549 NSCLC", "> 100 µM"),
]

Bench note, A549 NSCLC: COc1ccc(C2c3cc4c(cc3OC(N3CCOCC3)C2C)OCO4)cc1 (configuration not stated) , TGI reads > 90.6 µM

Bench note, A549 NSCLC: O=C1C2[C@@H](C(=O)N1c1ccc(Br)cc1)C13C(=CC2([N+](=O)[O-])[C@@H]2C(=O)N(c4ccc(Br)cc4)C(=O)[C@@H]21)c1ccccc1N3c1ccccc1 (some centres not stated) , TGI reads > 100 µM

Bench note, A549 NSCLC: Cc1ccc(NC(=O)C(=O)C2C(=O)NC(=O)NC2=O)cc1C , TGI reads > 100 µM

Bench note, A549 NSCLC: O=C(Cn1c2ccc(Br)cc2c2nc3ccccc3nc21)NNC(=S)NC1CCCCC1 , TGI reads 22.4 µM

Bench note, A549 NSCLC: COC(=O)C(=O)CC(=O)c1cccc(OC)c1 , TGI reads > 100 µM

Bench note, A549 NSCLC: COc1ccc(-c2nn(-c3cccc(Cl)c3)cc2-c2nc(N)[nH]c(=O)c2C#N)cc1 , TGI reads 50.8 µM

Bench note, A549 NSCLC: COc1ccc(/C(Cl)=C(\C#N)c2ccc(OC)c(OC)c2)cc1OC , TGI reads > 100 µM
